The origin of these recorded values is patent US9593305B2.

Test system: H1 human embryonic stem cells
MEASUREMENT NOTES: Secondary assay: panel of compounds with growth factor combinations and muscimol, no activin A (Example 6, Table 5)
Type: cell-based
CONDITION NOTES: no AA (with Wnt3a); EGF
Description: Clusters of H1 human embryonic stem cells were grown on reduced growth factor […]™ (Invitrogen; Cat #356231)-coated tissue culture plastic. […] Segmentation for the nuclei was determined based on grayscale levels (baseline range 100-300) and nuclear size. Averages and standard deviations were calculated for each replicate data set. Total SOX17 protein expression was reported as total intensity or integrated intensity, defined as total fluorescence of the cell multiplied by the area of the cell. […]
Cell Number, % of positive control values by entry
Give the value in % but do not write % after it.

Entry O=C1CCN2CCN(CC2)Cc2cc(Cl)cc(c2)Nc2ncnc(n2)-c2cncc(c2)CCCN1 [Compound 34] — recorded Cell Number, % of positive control = 124.89
